- Test system: HepG2-TP53BP1-CLTA
- test: lowest phenotypically active concentration; higher = less potent
- recorded-conditions: treatment time: 24 h
Counter-ions that a name gives are not always drawn.
endpoint-label: lowest phenotypically active concentration (µM)
Numeric answer only, unit µM assumed.

compound	unit	numeric-result
CN1CCN([C@H]2CC[C@H](n3cc(-c4ccc(Oc5ccccc5)cc4)c4c(N)ncnc43)CC2)CC1	µM	1
CC[C@H](CO)Nc1nc(Nc2cccc(-c3ccccn3)c2)c2ncn(C(C)C)c2n1 [(R)-DRF053 dihydrochloride]	µM	9

Task: For the compound "CN/C(=C/[N+](=O)[O-])NCCSCc1csc(CN(C)C)n1" , what lowest phenotypically active concentration is on record?
Output: 1

Task: For the compound "COc1ccc(S(=O)(=O)N(C(C)=O)c2ccccc2/C=C/c2cc[n+]([O-])cc2)cc1" , what lowest phenotypically active concentration is on record?
Output: 3

Task: For the compound C[C@@H](Nc1ncnc2[nH]c(-c3ccc(O)cc3)cc12)c1ccccc1 [PKI 166 hydrochloride] , what lowest phenotypically active concentration is on record?
Output: 9

====

Below is a list of entries, each paired with its recorded phenotypically active value.
- Tested on: WPMY1-TP53BP1-CLTA
- test: phenotypically active (imaging signature differs from DMSO and reproducible) at any of 0.3-9 uM (binary (1 = active, 0 = inactive)); higher = active
- recorded-conditions: treatment time: 24 h
In your answer, state the number alone without any accompanying words.

Below, each entry is followed by its recorded phenotypically active result.
compound	phenotypically active
CN1CCC(CN2c3ccccc3Sc3ccccc32)C1 (stereo not given) [methdilazine]	1
CC(C)[C@H](N)C(=O)OCC(CO)OCn1cnc2c(=O)[nH]c(N)nc21 (stereo not given in full) [valganciclovir]	0
C[C@H](CCC(=O)NCC(=O)O)[C@H]1CC[C@H]2[C@@H]3[C@H](O)C[C@@H]4C[C@H](O)CC[C@]4(C)[C@H]3C[C@H](O)[C@]12C [Glycocholic acid]	0
Cc1cc(/N=N/c2ccc(S(=O)(=O)Nc3ccccn3)cc2)c(N)cc1O	1
CC1=C(CC(=O)O)c2cc(F)ccc2/C1=C\c1ccc(S(C)=O)cc1 (stereo not given) [sulindac]	0
CN(C)C(=O)C(CCN1CCC(O)(c2ccc(Cl)cc2)CC1)(c1ccccc1)c1ccccc1 [loperamide]	1
CCOP(=O)(OCC)C(=Cc1cc(C(C)(C)C)c(O)c(C(C)(C)C)c1)P(=O)(OCC)OCC	0
O=S(=O)(NCCCCCCc1ccccc1)c1cccc2c(Cl)cccc12	0
NC1=NCC2c3ccccc3Cc3ccccc3N12 (stereo not given) [epinastine]	0
Nc1cccc(-c2cc3c(Oc4cccc(O)c4)ncnc3[nH]2)c1	1

Task: For the compound c1ccc2c(c1)CCCC2C1=NCCN1 (stereo not given) [tetrahydrozoline] , what phenotypically active is on record?
Output: 0

Task: For the compound "COCc1nc2c([nH]1)c(=O)n(C)c(=O)n2CC(C)C" , what phenotypically active is on record?
Output: 0

Task: For the compound C[C@]12CC[C@@H]3c4ccc(O)cc4CC[C@H]3[C@@H]1CC[C@@H]2OC(=O)CCC1CCCC1 [estradiol cypionate] , what phenotypically active is on record?
Output: 0

Task: For the compound O=C(Nc1c(Cl)cncc1Cl)c1ccc(OC(F)F)c(OCC2CC2)c1 [roflumilast] , what phenotypically active is on record?
Output: 0

Task: For the compound O=C1CCc2cc(OCCCCc3nnnn3C3CCCCC3)ccc2N1 [Cilostazol] , what phenotypically active is on record?
Output: 0

Task: For the compound CC(C)C1=CC2=CCC3[C@](C)(CCC[C@]3(C)C(=O)O)C2CC1 (stereo not given in full) [Abietic Acid] , what phenotypically active is on record?
Output: 0

Task: For the compound C#C[C@]1(O)CC[C@H]2[C@@H]3CCC4=Cc5oncc5C[C@]4(C)[C@H]3CC[C@@]21C [danazol] , what phenotypically active is on record?
Output: 0

Task: For the compound CCCCCCCN(CC)CCCC(O)c1ccc(NS(C)(=O)=O)cc1 (stereo not given) [ibutilide] , what phenotypically active is on record?
Output: 0

Task: For the compound CC(C)(C)NC(=O)[C@@H]1CN(Cc2cccnc2)CCN1C[C@@H](O)C[C@@H](Cc1ccccc1)C(=O)N[C@H]1c2ccccc2C[C@H]1O [indinavir] , what phenotypically active is on record?
Output: 0

Task: For the compound O=C(CCCCCN1C(=O)c2cccc3cccc(c23)C1=O)NO [Scriptaid] , what phenotypically active is on record?
Output: 1

Task: For the compound "CC[C@H](C)[C@H](NC(=O)OCc1ccccc1)C(=O)N[C@@H](CCC(=O)OC(C)(C)C)C(=O)N[C@@H](C)C(=O)N[C@H](C=O)CC(C)C" , what phenotypically active is on record?
Output: 1

====

- System: HepG2-TUBA1B-RELA
- test: phenotypically active (imaging signature differs from DMSO and reproducible) at any of 0.3-9 uM (binary (1 = active, 0 = inactive)); higher = active
- recorded-conditions: treatment time: 24 h
Pick one and only one: true (active), false (inactive)

The examples below pair each entry with its known result.
>>> print(df.to_string())
                                   molecule      target_system  class_name
0  COc1cc(O)c2c(c1C1CCCN1)OC(c1ccc(O)cc1)CC2 (centres undefined) [Vochysine (4 dia/énantio)]  HepG2-TUBA1B-RELA       false
1  CC(C)(C)NC(=O)[C@@H]1CN(Cc2cccnc2)CCN1C[C@@H](O)C[C@@H](Cc1ccccc1)C(=O)N[C@H]1c2ccccc2C[C@H]1O  HepG2-TUBA1B-RELA       false
2  COc1cc2c(cc1OC)CC(=O)N(CCCN(C)C[C@H]1Cc3cc(OC)c(OC)cc31)CC2  HepG2-TUBA1B-RELA       false
3        CC(C)c1ccc(-c2cc(=O)c3ccccc3o2)cc1  HepG2-TUBA1B-RELA       false
4  CC(=O)NC1=NN(C(C)=O)C(C)(c2ccccc2)S1 (centres undefined)  HepG2-TUBA1B-RELA        true
5      O=C1/C(=C\c2ccncc2)CCC/C1=C\c1ccncc1  HepG2-TUBA1B-RELA        true
6  CC1(C)O[C@@H]2C[C@H]3[C@@H]4C[C@H](F)C5=CC(=O)CC[C@]5(C)[C@H]4[C@@H](O)C[C@]3(C)[C@]2(C(=O)CO)O1 [flurandrenolide]  HepG2-TUBA1B-RELA       false
7  C#Cc1cccc(Nc2ncnc3cc(OCCOC)c(OCCOC)cc23)c1  HepG2-TUBA1B-RELA        true

Task: Each molecule tested received a call. Report the one for "Cc1ccc(Nc2nccc(N(C)c3ccc4c(C)n(C)nc4c3)n2)cc1S(N)(=O)=O" .
Output: false

====

- System: A549-TP53BP1-CLTA
- test: lowest phenotypically active concentration; higher = less potent
- recorded-conditions: treatment time: 24 h
Below is a list of entries, each paired with its recorded lowest phenotypically active concentration value.

Below, each entry is followed by its recorded lowest phenotypically active concentration result.
molecule	target-system	result
C/C=C1\NC(=O)[C@H]2CSSCCC=C[C@H](CC(=O)N[C@H](C(C)C)C(=O)N2)OC(=O)[C@H](C(C)C)NC1=O	A549-TP53BP1-CLTA	≤ 0.3 µM
CC[C@H](C)[C@H](NC(=O)OCc1ccccc1)C(=O)N[C@@H](CCC(=O)OC(C)(C)C)C(=O)N[C@@H](C)C(=O)N[C@H](C=O)CC(C)C	A549-TP53BP1-CLTA	≤ 0.3 µM
CC[C@@H]1C(=O)N(C)c2cnc(Nc3ccc(C(=O)NC4CCN(C)CC4)cc3OC)nc2N1C1CCCC1	A549-TP53BP1-CLTA	≤ 0.3 µM
COc1ccc(-c2cc3c(C)nc(N)nc3n([C@H]3CC[C@H](OCCO)CC3)c2=O)cn1	A549-TP53BP1-CLTA	≤ 0.3 µM
O=C(NOCC1CC1)c1ccc(F)c(F)c1Nc1ccc(I)cc1Cl	A549-TP53BP1-CLTA	≤ 0.3 µM
COc1cc([C@@H]2c3cc4c(cc3[C@@H](O[C@@H]3O[C@@H]5CO[C@@H](c6cccs6)O[C@H]5[C@H](O)[C@H]3O)[C@H]3COC(=O)[C@H]23)OCO4)cc(OC)c1O [teniposide]	A549-TP53BP1-CLTA	≤ 0.3 µM

Task: For the molecule "O=C(O)c1ccc(Nc2ncc3c(n2)-c2ccc(Cl)cc2C(c2c(F)cccc2F)=NC3)cc1" , what lowest phenotypically active concentration is on record?
Output: ≤ 0.3 µM

Task: For the molecule CCCC(=O)O[C@]1(C(=O)COC(C)=O)CC[C@H]2[C@@H]3C[C@H](F)C4=CC(=O)C=C[C@]4(C)[C@@]3(F)[C@@H](O)C[C@@]21C [difluprednate] , what lowest phenotypically active concentration is on record?
Output: ≤ 0.3 µM

Task: For the molecule "CCc1cccc(CC)c1NC(=O)N1Cc2[nH]nc(NC(=O)c3ccc(N4CCN(C)CC4)cc3)c2C1" , what lowest phenotypically active concentration is on record?
Output: 3 µM
